# Tested on: LU99A
# MEASUREMENT PROTOCOL: relative viability (nuclei count vs DMSO), 5 days (fraction); higher = more cells survive
# CONDITION INFO: first compound 0.02 µM
The following compounds are shown together with reported relative viability values.
No unit in the answer, please; the number alone is enough.

// worked examples, relative viability included
CC(=O)O[C@@]12CO[C@@H]1C[C@H](O)[C@@]1(C)C(=O)[C@H](O)C3=C(C)[C@@H](OC(=O)[C@H](O)[C@@H](NC(=O)OC(C)(C)C)c4ccccc4)C[C@@](O)([C@@H](OC(=O)c4ccccc4)[C@H]21)C3(C)C [Docetaxel] + O=C(c1cc(Cc2n[nH]c(=O)c3ccccc23)ccc1F)N1CCN(C(=O)C2CC2)CC1 [Olaparib] (partner 8 µM) = 0.163
CC(=O)O[C@@]12CO[C@@H]1C[C@H](O)[C@@]1(C)C(=O)[C@H](O)C3=C(C)[C@@H](OC(=O)[C@H](O)[C@@H](NC(=O)OC(C)(C)C)c4ccccc4)C[C@@](O)([C@@H](OC(=O)c4ccccc4)[C@H]21)C3(C)C [Docetaxel] + NC(=O)Nc1cc(-c2cccc(F)c2)sc1C(=O)N[C@H]1CCCNC1 [AZD7762] (partner 0.2 µM) = 0.104
CC(=O)O[C@@]12CO[C@@H]1C[C@H](O)[C@@]1(C)C(=O)[C@H](O)C3=C(C)[C@@H](OC(=O)[C@H](O)[C@@H](NC(=O)OC(C)(C)C)c4ccccc4)C[C@@](O)([C@@H](OC(=O)c4ccccc4)[C@H]21)C3(C)C [Docetaxel] + COc1cc2c(Oc3ccc(NC(=O)C4(C(=O)Nc5ccc(F)cc5)CC4)cc3F)ccnc2cc1OCCCN1CCOCC1 [Foretinib] (partner 0.25 µM) = 0.259
CC(=O)O[C@@]12CO[C@@H]1C[C@H](O)[C@@]1(C)C(=O)[C@H](O)C3=C(C)[C@@H](OC(=O)[C@H](O)[C@@H](NC(=O)OC(C)(C)C)c4ccccc4)C[C@@](O)([C@@H](OC(=O)c4ccccc4)[C@H]21)C3(C)C [Docetaxel] + C[C@@H](Oc1cc(-c2cnn(C3CCNCC3)c2)cnc1N)c1c(Cl)ccc(F)c1Cl [Crizotinib] (partner 1 µM) = 0.196

Pending compound:
[Q] Entry CC(=O)O[C@@]12CO[C@@H]1C[C@H](O)[C@@]1(C)C(=O)[C@H](O)C3=C(C)[C@@H](OC(=O)[C@H](O)[C@@H](NC(=O)OC(C)(C)C)c4ccccc4)C[C@@](O)([C@@H](OC(=O)c4ccccc4)[C@H]21)C3(C)C [Docetaxel] + Cc1cc(Nc2cc(N3CCN(C)CC3)nc(Sc3ccc(NC(=O)C4CC4)cc3)n2)n[nH]1 [Tozasertib] (partner 0.1 µM) : reported relative viability = ?
[A] 0.211
